Target: Glucocorticoid receptor (Homo sapiens, UniProt P04150)
Sequence (P04150 whole entry): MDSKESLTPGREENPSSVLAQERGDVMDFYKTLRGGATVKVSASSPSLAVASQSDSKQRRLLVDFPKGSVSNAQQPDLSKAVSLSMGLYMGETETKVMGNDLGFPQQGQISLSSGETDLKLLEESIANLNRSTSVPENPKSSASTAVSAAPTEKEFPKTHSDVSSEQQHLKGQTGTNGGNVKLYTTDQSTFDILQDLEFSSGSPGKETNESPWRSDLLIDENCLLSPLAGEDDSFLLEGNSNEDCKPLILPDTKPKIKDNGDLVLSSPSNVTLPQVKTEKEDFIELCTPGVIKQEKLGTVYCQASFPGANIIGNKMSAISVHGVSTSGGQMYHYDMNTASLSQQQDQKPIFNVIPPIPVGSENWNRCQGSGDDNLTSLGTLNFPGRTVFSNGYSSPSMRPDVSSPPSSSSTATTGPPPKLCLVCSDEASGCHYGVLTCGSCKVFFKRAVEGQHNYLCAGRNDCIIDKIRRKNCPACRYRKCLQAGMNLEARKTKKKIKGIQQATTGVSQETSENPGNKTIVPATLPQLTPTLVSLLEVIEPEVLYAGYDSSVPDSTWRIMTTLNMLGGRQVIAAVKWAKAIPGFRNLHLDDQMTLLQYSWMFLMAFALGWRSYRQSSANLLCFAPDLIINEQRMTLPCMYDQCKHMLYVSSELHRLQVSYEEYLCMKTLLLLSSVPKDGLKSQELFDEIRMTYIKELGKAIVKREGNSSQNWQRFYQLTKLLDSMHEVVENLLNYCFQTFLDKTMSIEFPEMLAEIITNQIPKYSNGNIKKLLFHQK
Test: Antagonist activity at glucocorticoid receptor expressed in A549 cells assessed as inhibition of corticoid-induced gene transcription by luciferase reporter gene assay
Format: functional, cell-based
endpointLabel: IC50 (µM)

INSERT INTO assay_data (chemicalsmiles, measurednumber) VALUES
  ('C=C1OC(CC)=N[C@]12CC[C@H]1[C@@H]3CCC4=CC(=O)CCC4=C3[C@@H](c3ccc(N(C)C)cc3)C[C@@]12C', 0.023);

[1] C=C1OC(C)=N[C@]12CC[C@H]1[C@@H]3CCC4=CC(=O)CCC4=C3[C@@H](c3ccc(OC)c(F)c3)C[C@@]12C
[2] C=C1OC(C)=N[C@]12CC[C@H]1[C@@H]3CCC4=CC(=O)CCC4=C3[C@@H](c3ccc(C(C)=O)cc3)C[C@@]12C
[3] C=C1OC=N[C@]12CC[C@H]1[C@@H]3CCC4=CC(=O)CCC4=C3[C@@H](c3ccc(C(C)=O)cc3)C[C@@]12C
List the 3 entries from lowest IC50 to highest IC50 value. List the labels, following the order given in the request.
2, 1, 3
(2: 0.46 µM, 1: 0.66 µM, 3: 14 µM)
